Target: T1, human L1CAM (purified extracellular domain) (human, UniProt P32004 20-1112)
T1 construct: range 1-1112; Expressed in HEK293T from pJK-dhfr2-L1-monomer; The stated range 1-1112 begins at residue 1 of the precursor; no signal peptide limits are stated; also called human L1CAM antigen
T1 sequence (P32004 20-1112 limits assumed, form in doubt): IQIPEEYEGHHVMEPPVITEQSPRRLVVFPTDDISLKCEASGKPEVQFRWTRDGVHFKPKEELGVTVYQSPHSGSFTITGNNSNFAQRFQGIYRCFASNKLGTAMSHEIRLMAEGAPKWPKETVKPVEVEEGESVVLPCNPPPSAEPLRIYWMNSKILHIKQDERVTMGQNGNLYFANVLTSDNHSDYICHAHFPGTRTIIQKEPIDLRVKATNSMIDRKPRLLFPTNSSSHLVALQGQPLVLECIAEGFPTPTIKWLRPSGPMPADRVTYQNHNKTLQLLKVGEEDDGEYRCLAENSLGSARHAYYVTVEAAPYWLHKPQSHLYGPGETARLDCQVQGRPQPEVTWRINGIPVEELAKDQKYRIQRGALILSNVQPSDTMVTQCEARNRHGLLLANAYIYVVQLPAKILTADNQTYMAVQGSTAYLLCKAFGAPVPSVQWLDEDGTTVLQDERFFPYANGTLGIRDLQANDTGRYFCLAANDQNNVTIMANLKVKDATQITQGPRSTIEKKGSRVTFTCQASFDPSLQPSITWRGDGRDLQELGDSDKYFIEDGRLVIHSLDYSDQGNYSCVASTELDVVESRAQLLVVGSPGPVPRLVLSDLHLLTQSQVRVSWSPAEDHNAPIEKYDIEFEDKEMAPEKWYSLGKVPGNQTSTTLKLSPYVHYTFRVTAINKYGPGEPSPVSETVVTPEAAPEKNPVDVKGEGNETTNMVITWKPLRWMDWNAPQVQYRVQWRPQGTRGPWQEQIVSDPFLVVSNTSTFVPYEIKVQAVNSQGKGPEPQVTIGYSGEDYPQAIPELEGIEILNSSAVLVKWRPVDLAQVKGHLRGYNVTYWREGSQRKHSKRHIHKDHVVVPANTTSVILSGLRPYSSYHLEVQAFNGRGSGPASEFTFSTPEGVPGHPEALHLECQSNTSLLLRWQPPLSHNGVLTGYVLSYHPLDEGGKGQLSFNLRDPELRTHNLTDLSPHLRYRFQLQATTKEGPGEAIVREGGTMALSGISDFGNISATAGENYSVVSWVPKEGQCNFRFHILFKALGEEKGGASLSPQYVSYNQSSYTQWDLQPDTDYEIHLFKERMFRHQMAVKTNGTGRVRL
Assay: competitive ELISA (soluble human L1CAM against coated human L1CAM)
// boundary case: Kd equal to 3 nM maps to false (0); strictly smaller maps to true (1)

Could you please tell me whether Kd recorded for V50F/H97A mutant of Ab4 antibody (antibody, name in Kabat numbering, V domains shown, also called VH V50F/H97A mutant) VH: EVQLVESGGGVVQPGRSLRLSCAASGFTFSRFGMHWVRQAPGKGLEWVAFISNDGSNKYYADSVKGRFTISRDNSKNTLYLQMNSLRPEDTAVYYCARGRAYGSGSLFDPWGQGTLVTVSS VL: DIQLTQSPSSLSASVGDRVTITCRASRTISIYVNWYRQRPGKAPESLIYAASNLHSGVPSRFSGSGSGTDFTLTVSSLQPEDFGTYYCQQTHDTRQYTFGQGTKLEIK is less than 3 nM?
false (0)

Same thing, different binder: H97A mutant of Ab4 antibody (antibody, IgG1, name in Kabat numbering, V domains shown, Whole IgG made in the pdCMV-dhfrC-Ab4 vector (IgG1); also called VH H97A mutant of Ab4) VH: EVQLVESGGGVVQPGRSLRLSCAASGFTFSRFGMHWVRQAPGKGLEWVAVISNDGSNKYYADSVKGRFTISRDNSKNTLYLQMNSLRPEDTAVYYCARGRAYGSGSLFDPWGQGTLVTVSS VL: DIQLTQSPSSLSASVGDRVTITCRASRTISIYVNWYRQRPGKAPESLIYAASNLHSGVPSRFSGSGSGTDFTLTVSSLQPEDFGTYYCQQTHDTRQYTFGQGTKLEIK
false (0)

Same thing, different binder: Ab417 antibody (antibody, V domains shown, Whole IgG expressed from pdCMV-dhfrC-Ab417; also called IgG form of Ab4M-18 (codon-optimised)) VH: EVQLVESGGGVVQPGRSLRLSCAASGFTFSRFGMHWVRQAPGKGLEWVAFISNDGSNKYYADSVKGRFTISRDNSKNTLYLQMNSLRPEDTAVYYCARGRAYGSGSLFDPWGQGTLVTVSS VL: DIQLTQSPSSLSASVGDRVTITCRASRTISIYVNWYRQRPGKAPESLIYAASNLHSGVPSRFSGSGSGTDFTLTISSLQPEDFATYYCQQSIGRGVVTFGQGTKLEIK
true (1)

Same thing, different binder: Ab4M antibody (antibody, IgG1, V domains shown, Ab4 with V50F and H97A in VH and V75I, G84A and D93A in VK; Whole IgG (IgG1 vector pdCMV-dhfrC-Ab4M)) VH: EVQLVESGGGVVQPGRSLRLSCAASGFTFSRFGMHWVRQAPGKGLEWVAFISNDGSNKYYADSVKGRFTISRDNSKNTLYLQMNSLRPEDTAVYYCARGRAYGSGSLFDPWGQGTLVTVSS VL: DIQLTQSPSSLSASVGDRVTITCRASRTISIYVNWYRQRPGKAPESLIYAASNLHSGVPSRFSGSGSGTDFTLTISSLQPEDFATYYCQQTHATRQYTFGQGTKLEIK
true (1)

Same thing, different binder: D93A mutant of Ab4 antibody (antibody, IgG1, V domains shown, Whole IgG made in the pdCMV-dhfrC-Ab4 vector (IgG1); also called VK D93A mutant) VH: EVQLVESGGGVVQPGRSLRLSCAASGFTFSRFGMHWVRQAPGKGLEWVAVISNDGSNKYYADSVKGRFTISRDNSKNTLYLQMNSLRPEDTAVYYCARGRHYGSGSLFDPWGQGTLVTVSS VL: DIQLTQSPSSLSASVGDRVTITCRASRTISIYVNWYRQRPGKAPESLIYAASNLHSGVPSRFSGSGSGTDFTLTVSSLQPEDFGTYYCQQTHATRQYTFGQGTKLEIK
false (0)

These entries and their values trace back to patent US20150344571A1.
